# tested target: the molecule itself
# assay text: size-exclusion chromatography, self-association (homodimer)
parameter: binding result

Solved cases below.
{"protein": "D2Q (designed binder, Designed homodimer subunit, after TEV cleavage) SGSGSEEEEKRLIEKMSKFIWWFAQQLGDERILRAVEKLQQEIKENSPTPETYMTLGNLLLSLLIWWAAQQLGDEKILEAVERLLQQIEENSPTPETHLTLAILMSALAIWQQAQKLGDEDILEAVERLLEEIQRNSPTPSTMTKLLWLALLLNNWEELQKQGDEEQLRSSEKAMKELKE", "binding result": "binds"}
{"protein": "tj79C2-H65E (designed binder, Designed homodimer subunit, after TEV cleavage) SGSGSREDELWARLLILLIELAAERADIAAERTGDPRVRELARELKRLAQEAAEEVKRDPSSSDVLLALHLIVIAILIAVEALEAAERTGDPEVRELARELVRLAVEAAEEVQRNPSSSDVLIALMLILIAILLLLEALEAAERTGDPEVRELARELVRLAVEAAEEVQRNPSSKEVQMALLLILIAILEAILSLLRAERSGDPEKREKARERVREAVERAEEVQRDPSGW", "binding result": "binds"}
{"protein": "D2P (designed binder, Designed homodimer subunit, after TEV cleavage) SGSGSEEEEKRLIEKMSKFIWWFAQQLGDERILRAVEKLQQEIKENSPTPETFMTLINLLLSLLIWWAAQKLGDEKILEAVERLLQQIEENSPTPETHMTLAALAQSLAIWQQAQKLGDEDILEAVERLLEEIQRNSPTPSTLIKLTWLLLLLNNWQELQKQGDEEQLRSSEKAMKELKE", "binding result": "binds"}
{"protein": "JH (designed binder, Designed homodimer subunit, after TEV cleavage) SGSSEELAREAREAAIRLAQASTKLMEAMIRGDLKELAEALIELARAVQELARVAKEYGNDELAKLAAFLAAHIAMLAIWVLILAIREGDDEVRELAKTAIKLASTAAKIVLDALPTAEEVRIITLLAKLAEEAADKKNEDSALAVLIAAMAVLIALAALEAAQRAGIEEAEKAARLLLKLAGEAARKKNPEEAKAVYNAALLVSIALLLLQKAKRAGSEETRRLAEEMLRQALERARKKN", "binding result": "binds"}
{"protein": "SP2 (designed binder, De novo designed subunit of a C2 homodimer) SGSGSSDEEFKFLATEAKMLITAAERLAGTDPELQEMVALIKKELEQAERTFRNGDKSEAQRQLEFVLTAARAVMNVAAAANAAGTDPELIEMVLRILKQLKEAIRTFQNGDQEEAETQLRFVLRAAIAVAVVAAALVLAGTDPELQEMVKQILEELKQAIETFARGDKEKALTQLLFVAWAAHAVAMIAAAANLAGTDPRLQQQVKEILEKLKEAIETFQKGDEEQAFRQLAEVLAEAALVALRAALTN", "binding result": "binds"}
{"protein": "D13_H11C (designed binder, Designed homodimer subunit, after TEV cleavage) SGSGSEEKEWAIMTAHLIYAIKVLKEMLEEDPNDEEIKKILELLWQISKTQQDDPHNEEQKEWLMLLLGIILALRLVQEMLKEDPNDEEIEKILELLKQILRTLREDPHNEEQKEWLALLVIIILLLDSVQEMLKEDPNDEEIEKILELLKQILRTLREDPHNEEQKQWLIQLINALILLLFIQEKLKEDPNDEEAEEELERLKEQLRRLRE", "binding result": "binds"}
{"protein": "tj79C2-H121C (designed binder, Designed homodimer subunit, after TEV cleavage) SGSGSREDELLARLLILLAELAAERADIAAERTGDPRVRELARELKRLAQEAAEEVKRDPSSSDVLMLLLLIVLAIQAAVEALEAAERTGDPEVRELARELVRLAVEAAEEVQRNPSSSDVFMALHLILFAIQLAVQALEAAERTGDPEVRELARELVRLAVEAAEELQRNPSSKEVQMALLLILIAILEAVLSLLRAERSGDPEKREKARERVREAVERAEEVQRDPSGW", "binding result": "binds"}
{"protein": "D_3_114_2 (designed binder, Designed homodimer subunit, after TEV cleavage) SGSGSSDEEFKWLATWAKMAITAAERAAGTDPELQEMVALIKKELEQAERTFRNGDKSEAWRQLVFVAIAAAAVLAVALAANAAGTDPELQEMVDRILKQLKEAIRTFQNGDQEEAETQLFFVLLAAAAVAVVALALIWAGTDPELQEMVKQILEELKQAIETFARGDKEKALTQLLFVLWAAHAVLWIAIAANTAGTDPRLQQQVKEILEKLKEAIETFQKGDEEQAFRQLAEVLAEAVLVALRAMKTN", "binding result": "binds"}

For this protein ( D13_H11A (designed binder, Designed homodimer subunit, after TEV cleavage) SGSGSEEKEWQAMTLHLIFAIKILKEMLEEDPNDEEIKKILELLWQISKTQQDDPHNEEQKEWLMLLLLIIMALRLVQEMLKEDPNDEEIEKILELLKQILRTLREDPHNEEQKEWLILLLIIILLLDSVQEMLKEDPNDEEIEKILELLKQILRTLREDPHNEEQKQWLIQLINALILLLFIQEKLKEDPNDEEAEEELERLKEQLRRLRE ), measured binding result is binds

For this protein ( D_3_114_3 (designed binder, Designed homodimer subunit, after TEV cleavage) SGSGSSDELFKWLATEAKMAITAAERLAGTDPELQEMVALIKKELEQAERTFRNGDKSEAMRQLLFVLMAANAVAAVAAAANMAGTDPELQEMVDRILKQLKEAIRTFQNGDQEEAMTQLAFVLLAAAAVFVVAWALILAGTDPELQEMVKQILEELKQAIETFARGDKEKALTQLLFVLWAAHAVAWIALAALLAGTDPRLLQQVKEILEKLKEAIETFQKGDEEQAFRQLAEVLAEAILVAIRAAKTN ), measured binding result is binds
